RAMPO Score values by entry
- system-name: T1, His-tagged P3028 peptide (PGE73) (human)
- T1 construct: also called His-tag-P3028; not shown: His-tag
- T1 peptide: VFDEFKPLVEEPQNLIK
- experiment-notes: PEPSCAN ELISA; peptide on card, His-tagged P3028 in solution;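 further: bound protein detected by peroxidase colour with ABTS substrate, imaged on the peptide card by CCD camera at 405 nm, rampo units being raw OD405 readings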
Express the result in rampo units but write the number alone.

binder: KKLDTFFEKLSLFTER (P28R variant on PEPSCAN card) [SEQ ID NO: 570]
unit-of-measure: rampo units
RAMPO Score: 139

binder: KKLDTFFVKLSLFTEP (P28R variant on PEPSCAN card) [SEQ ID NO: 533]
unit-of-measure: rampo units
RAMPO Score: 234

binder: KKLDTFFVKLSLFTCR (P28R variant on PEPSCAN card) [SEQ ID NO: 556]
unit-of-measure: rampo units
RAMPO Score: 185

binder: KKLDTFFDKLSLFTER (P28R variant on PEPSCAN card) [SEQ ID NO: 574]
unit-of-measure: rampo units
RAMPO Score: 122

binder: KKLDTFKVKLSLFTER (P28R variant on PEPSCAN card) [SEQ ID NO: 535]
unit-of-measure: rampo units
RAMPO Score: 232

Enquiry: Which RAMPO Score is reported for this binder? KKLDTFFVDLSLFTER (P28R variant on PEPSCAN card) [SEQ ID NO: 569]
Return: 149

Enquiry: Now this one: KKLDTFFVKLSLFEER (P28R variant on PEPSCAN card) [SEQ ID NO: 576]
Return: 110

Enquiry: And the next one, KKLDTFFVPLSLFTER (P28R variant on PEPSCAN card) [SEQ ID NO: 534] ?
Return: 233

Enquiry: One more binder: KKLDTFFVKLSLFTVR (P28R variant on PEPSCAN card) [SEQ ID NO: 565]
Return: 163
